- System: 6 Hz psychomotor seizure
- EXPERIMENT: 6 Hz psychomotor seizure test in mice
- MEASUREMENT CONDITIONS: Mus musculus, ip, 0.5 h, read-out: 6 Hz, number of mice protected/number of mice tested
PROPERTY NAME: responders at 300 mg/kg (%)

INSERT INTO measurements (molecule, quantitative_readout) VALUES
  ('CCC(CC)COC(=O)Nc1ccc(S(N)(=O)=O)cc1 [Compound 6]', 25),
  ('CCCCC(CC)COC(=O)Nc1ccc(S(N)(=O)=O)cc1 (stereo not shown) [Compound 2]', 50),
  ('CCCC(CCC)COC(=O)Nc1ccc(S(N)(=O)=O)cc1 [Compound 3]', 25),
  ('CCC(C)C(C)OC(=O)Nc1ccc(S(N)(=O)=O)cc1 (stereo not shown) [Compound 9]', 100),
  ('NS(=O)(=O)c1ccc(NC(=O)OCCc2ccccc2)cc1 [Compound 5, phenethyl (4-sulfamoylphenyl)carbamate]', 0),
  ('CCC(C)CCOC(=O)Nc1ccc(S(N)(=O)=O)cc1 (stereo not shown) [Compound 10]', 100),
  ('CC(C)(C)CCOC(=O)Nc1ccc(S(N)(=O)=O)cc1 [Compound 4]', 0),
  ('CC(C)C(OC(=O)Nc1ccc(S(N)(=O)=O)cc1)C(C)C [Compound 8]', 50),
  ('CC(COC(=O)Nc1ccc(S(N)(=O)=O)cc1)CC(C)(C)C (stereo not shown) [Compound 7]', 100),
  ('CCCC(COC(=O)Nc1ccc(S(N)(=O)=O)cc1)C(C)CC (stereo not shown) [Compound 1]', 0);

----------
- EXPERIMENT: in vivo
- MEASUREMENT CONDITIONS: male, CF no. 1 albino, mouse, ip
PROPERTY NAME: TD50

INSERT INTO results (compound, result) VALUES
  ('CCCC(COC(=O)Nc1ccc(S(N)(=O)=O)cc1)C(C)CC (stereo not drawn)', '> 500 mg/kg'),
  ('CCC(C)CCOC(=O)Nc1ccc(S(N)(=O)=O)cc1 (stereo not drawn)', '698 mg/kg'),
  ('CCC(C)C(C)OC(=O)Nc1ccc(S(N)(=O)=O)cc1 (stereo not drawn)', '> 600 mg/kg');

----------
pKi: −log10 of the molar value.
Record: pKi reported on hCA II (Homo sapiens, UniProt P00918).
PROPERTY NAME: pKi

INSERT INTO results (molecule, property_name, quantitative_readout) VALUES
  ('NS(=O)(=O)c1ccc(NC(=O)OCCc2ccccc2)cc1 [Compound 5, phenethyl (4-sulfamoylphenyl)carbamate]', 'pKi', 9.22),
  ('CCC(C)C(C)OC(=O)Nc1ccc(S(N)(=O)=O)cc1 (stereo not drawn)', 'pKi', 8.27),
  ('CCCC(COC(=O)Nc1ccc(S(N)(=O)=O)cc1)C(C)CC (stereo not drawn)', 'pKi', 8.24);

----------
- ASSAY TARGET: UniProt P00915
- Sequence (P00915 whole entry): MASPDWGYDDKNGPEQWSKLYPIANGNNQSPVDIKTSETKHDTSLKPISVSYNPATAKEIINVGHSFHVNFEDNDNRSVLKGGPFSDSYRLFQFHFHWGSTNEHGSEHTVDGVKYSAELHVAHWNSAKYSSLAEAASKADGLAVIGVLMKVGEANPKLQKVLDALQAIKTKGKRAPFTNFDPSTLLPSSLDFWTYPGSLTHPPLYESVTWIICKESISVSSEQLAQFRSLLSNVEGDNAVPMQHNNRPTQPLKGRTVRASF
Quick list: Ki per entry.
PROPERTY NAME: Ki (nM)

INSERT INTO assay_data (compound, property_name, quantitative_readout) VALUES
  ('NS(=O)(=O)c1ccc(NC(=O)OCCc2ccccc2)cc1 [Compound 5, phenethyl (4-sulfamoylphenyl)carbamate]', 'Ki', 5.9),
  ('CCC(C)C(C)OC(=O)Nc1ccc(S(N)(=O)=O)cc1 (stereo not shown)', 'Ki', 72.9),
  ('CCCC(COC(=O)Nc1ccc(S(N)(=O)=O)cc1)C(C)CC (stereo not shown)', 'Ki', 89),
  ('CCCCC(CC)COC(=O)Nc1ccc(S(N)(=O)=O)cc1 (stereo not shown)', 'Ki', 421),
  ('CCC(CC)COC(=O)Nc1ccc(S(N)(=O)=O)cc1', 'Ki', 169),
  ('CC(COC(=O)Nc1ccc(S(N)(=O)=O)cc1)CC(C)(C)C (stereo not shown)', 'Ki', 83.5),
  ('CC(C)C(OC(=O)Nc1ccc(S(N)(=O)=O)cc1)C(C)C', 'Ki', 21);
